- Measured on: T1, O9-bN
- T1 chain: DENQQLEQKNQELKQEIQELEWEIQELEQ
- Protocol text: two-hybrid library CCNG1;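 also: natural log of median RNA to DNA barcode read ratio; higher means stronger binding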
Measurement name: interaction score

Consider the following illustrative entries.
| Binder | Reported result |
| --- | --- |
| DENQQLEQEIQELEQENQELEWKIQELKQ [O14-bN] | -0.149 |
| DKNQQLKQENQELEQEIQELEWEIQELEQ [O1-bN] | -1.9 |

[I] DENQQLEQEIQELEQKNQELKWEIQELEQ [O5-bN]
[II] DEIQQLEQENQELEQKIQELKWENQELEQ [O15-bN]
Given I and given II , which shows the smaller recorded interaction score? To answer, give the label that identifies your chosen option.
I

Just for reference, paper PMC10397247 is where these values come from.
